All values here come from ChEMBL document CHEMBL1201862.

Tested on: CCRF-CEM
Assay: NCI tumour cell line growth inhibition, 48 h
Activity calls are given as the source filed them. No stated cut-off is given here; in the data, active = GI50 up to about 1.1 µM and inactive = higher. Where a SMILES comes first, the peptide text is derived from it. The star is where a group is joined. Boc = CC(C)(C)OC(=O)*
Outcome codes: true (active), false (inactive)

molecule: Cc1ccc(C(=O)Nc2ccc(S(=O)(=O)O)c3cc(S(=O)(=O)O)cc(S(=O)(=O)O)c23)cc1NC(=O)c1cccc(N)c1
experimental-system: CCRF-CEM
discrete-label: false
--
molecule: COc1ccc(/C=C/C(=O)c2ccc(OC(=O)/C=C/c3ccccc3)cc2)cc1
experimental-system: CCRF-CEM
discrete-label: false
--
molecule: CS(=O)(=O)c1nc(-c2cc3c(c(S(C)(=O)=O)n2)CCCC3)cc2c1CCCC2
experimental-system: CCRF-CEM
discrete-label: false
--
molecule: CCN(c1ccccc1)[C@H]1C(=O)N(c2ccc([N+](=O)[O-])cc2)[C@H]1c1ccc(OC)cc1
experimental-system: CCRF-CEM
discrete-label: false
--
molecule: CCOC(=O)Oc1cc2ccsc2c2c1c1ccccc1n2C(=O)OCC
experimental-system: CCRF-CEM
discrete-label: false
--
molecule: CCC(C)C(N)C(=O)NC(CC(N)=O)C(=O)NC(CC(C)C)C(=O)NC(CCCCN)C(=O)NC(C)C(=O)NC(CC(C)C)C(=O)NC(C)C(=O)NC(C)C(=O)NC(CC(C)C)C(=O)NC(C)C(=O)NC(CCCCN)C(=O)NC(CCCCN)C(=O)NC(C(=O)NC(CC(C)C)C(N)=O)C(C)CC (centres undefined)
experimental-system: CCRF-CEM
discrete-label: false
--
molecule: N#C/C(=C(/S)Nc1ccccc1)c1nc2ccccc2[nH]1
experimental-system: CCRF-CEM
discrete-label: false
--
molecule: CN(C)CCCOCCn1c2c(c3ccccc31)CCCC2
experimental-system: CCRF-CEM
discrete-label: false
--
molecule: N#Cc1c(-c2ccc([N+](=O)[O-])cc2)cc(-c2ccc(Nc3ccnc4cc(Cl)ccc34)cc2)nc1N
experimental-system: CCRF-CEM
discrete-label: true
--
molecule: O=[N+]([O-])/C(C(Cl)=C(Cl)Cl)=C(\Nc1cccc2ccccc12)Sc1ccccc1
experimental-system: CCRF-CEM
discrete-label: false
--
molecule: CCC1OC(=O)CC(O)C(C)C(OC2OC(C)CC(N(C)C)C2O)C(CC=O)CC(C)C(=O)/C=C/C2(C)OC2C1C (centres undefined)
experimental-system: CCRF-CEM
discrete-label: false
--
molecule: CN1CCC(C(O)(c2ccccc2)c2ccc(Br)cc2)CC1 (centres undefined)
experimental-system: CCRF-CEM
discrete-label: false
--
molecule: O=[N+]([O-])c1ccc(/C=N/Nc2nc3ccccc3[nH]2)o1
experimental-system: CCRF-CEM
discrete-label: false
--
molecule: O=C(O)CC1OCC=C2CN3CCC45c6ccccc6NC4C1C2CC35 (centres undefined)
experimental-system: CCRF-CEM
discrete-label: false
--
molecule: O=[N+]([O-])c1ccc(OCCNc2cccc3ccccc23)cc1
experimental-system: CCRF-CEM
discrete-label: false
--
molecule: COc1cc2c(cc1O)CC[n+]1cc3c(OC)c(OC)ccc3cc1-2
experimental-system: CCRF-CEM
discrete-label: false
--
molecule: C=CCNC1=C2C[C@@H](C)C[C@@H](OC)[C@@H](OC(=O)CCCN)[C@H](C)/C=C(\C)[C@@H](OC(N)=O)[C@H](OC)/C=C\C=C(/C)C(=O)NC(=CC1=O)C2=O
experimental-system: CCRF-CEM
discrete-label: false
--
molecule: COC(=O)/C(=N\NC(N)=O)C(C(=O)C(=O)Nc1ccccc1C(=O)OC)c1nc2ccc(C(=O)c3ccccc3)cc2nc1O (centres undefined)
experimental-system: CCRF-CEM
discrete-label: false
--
molecule: CCCCS/C(=C(/C#N)C(N)=O)c1cc2c([nH]1)CCCC2
experimental-system: CCRF-CEM
discrete-label: false
--
molecule: Cc1ccc(C2=CC(=O)OC(C[P+](c3ccccc3)(c3ccccc3)c3ccccc3)(c3ccccc3)O2)cc1 (centres undefined)
experimental-system: CCRF-CEM
discrete-label: false
--
molecule: O=C1C(Cl)=C(Sc2nnc3c4ccccc4c4ccccc4c3n2)C(=O)c2ccccc21
experimental-system: CCRF-CEM
discrete-label: false
--
molecule: Clc1cc(Cc2cc(Cl)c(Cl)c3c2OCOC3)c2c(c1Cl)COCO2
experimental-system: CCRF-CEM
discrete-label: false
--
molecule: COC(=O)c1cc(C)ccc1/C=C1\Cc2c(C)cc(C)cc2C1=O
experimental-system: CCRF-CEM
discrete-label: false
--
molecule: CC(=O)OCC1OC(n2c(-c3ccccc3)c(C(C)=O)c(-c3cccc4ccccc34)c(C#N)c2=S)C(OC(C)=O)C(OC(C)=O)C1OC(C)=O (centres undefined)
experimental-system: CCRF-CEM
discrete-label: false
--
molecule: CC(=O)OCC(OC(C)=O)C(OC(C)=O)C(/C=N/N(C(C)=O)S(=O)(=O)c1ccc(/C=C2\NC(=O)NC2=O)cc1)OC(C)=O (centres undefined)
experimental-system: CCRF-CEM
discrete-label: false
--
molecule: CC(C)(C)OC(=O)NC(Cc1ccccc1)C(=O)N1CCCC1C(N)=O (stereo not drawn) (Boc-Phe-Pro-NH2; configuration not given here)
experimental-system: CCRF-CEM
discrete-label: false
--
molecule: COc1ccc(-c2c(C#N)c(N)n(C3OC(CO)C(O)C(O)C3O)c(=S)c2C#N)cc1 (centres undefined)
experimental-system: CCRF-CEM
discrete-label: false
--
molecule: CC1(C)OC(CP(c2ccccc2)c2ccccc2)C(CP(c2ccccc2)c2ccccc2)O1 (centres undefined)
experimental-system: CCRF-CEM
discrete-label: true
--
molecule: CCOC(=O)c1c(-c2ccccc2)nc2ccccc2c1O
experimental-system: CCRF-CEM
discrete-label: false
